assay: Toxicity liver stage against HepG2, at 10uM; format: cell-based; design: test concentration 10 uM, cell line HepG2-A16-CD81EGFP; details: human, HepG2-A16-CD81EGFP cells; read-out: INHIBITION
Readings of cytotoxicity at 10 µM for the listed molecules
Lab book: enter the figure in %, no units written.

Example molecules with recorded cytotoxicity at 10 µM:
• COCCOc1ncccc1C(=O)N1CCCCC1c1nccs1 (centres undefined) = -11.5
• c1cc2c(cc1Cn1cc(C3CCCNC3)nn1)CCCO2 (centres undefined) = -5.24
• CN(CC1CCCCO1)c1nc(-c2cccnc2)nc2c1CCNC2 (centres undefined) = 3.01
• COCCN(C)CC(=O)N1C[C@@H](NC(C)=O)[C@H](c2ccc(OC)cc2)C1 = 1.45
• O=C(Nc1ccc(N2CCCCC2)cn1)C1CCCN1C(=O)C1CC1 (centres undefined) = -6.35

Record Cc1ccc(CN2CC[C@H]3OCC[C@@]3(C(=O)N3CCCO3)C2)s1 . Reported cytotoxicity at 10 µM: 2.08

Record OC1(CN2CCOC(Cn3cccn3)C2)CCCCC1 (centres undefined) . Reported cytotoxicity at 10 µM: -6.11

Record CN(Cc1cccc(C(N)=O)c1)c1ncc(C(N)=O)cc1Cl . Reported cytotoxicity at 10 µM: -3.73

Record Cn1cnnc1C1CCN(c2nc3ccccc3o2)CC1 . Reported cytotoxicity at 10 µM: 14.1

Record CC1CCCN(Cc2ccc(OCc3nccn3C)cc2)C1 (centres undefined) . Reported cytotoxicity at 10 µM: -11.8

Record Fc1ccc(CN2C[C@@H]3OCCN(CCN4CCCC4)[C@@H]3C2)cc1 . Reported cytotoxicity at 10 µM: -3.58

Record Cc1c(C2c3nc[nH]c3CCN2CCOCc2ccccc2)cnn1C (centres undefined) . Reported cytotoxicity at 10 µM: 0.838

Record Cc1n[nH]c(NC(=O)c2ccc(COCC(F)(F)F)cc2)c1C . Reported cytotoxicity at 10 µM: -0.81

Record Cc1cc(NCC2CC(=O)Nc3ccccc32)nc(C)n1 (centres undefined) . Reported cytotoxicity at 10 µM: 0.344

Record Cc1cc(NCc2ccco2)nc2[nH]nc(N)c12 . Reported cytotoxicity at 10 µM: -43.6

Record OC1(CN2CCCCC2)CCN(Cc2c[nH]c(CC3CCCC3)n2)C1 (centres undefined) . Reported cytotoxicity at 10 µM: -13

meta.source: ChEMBL document CHEMBL4513216
